- System: MOLT-4 leukemia
- TEST_SUMMARY: NCI-60 one-dose screen, 48 h
- PROTOCOL_CONDITIONS: 10 µM unless noted
About 83,000 compounds went through this panel and 20% of them were active in at least one assay; those are over-represented in the sample as a whole. Activity calls are given as the source filed them. Rule for the calls: active = growth percent below 10; inactive = the rest.
Classes used: active, inactive

COMPOUND | QUALITATIVE_LABEL
O=C(CN1CCCCCC1)Nc1nc2ccc(NCc3ccc(Cl)cc3)cc2s1 | inactive
O=C1c2ccccc2C(=O)c2c1cc1c(c2[N+](=O)[O-])OCO1 | inactive
CCO/C=N/C1=C(C#N)C(c2ccc(F)cc2)c2sc3c(F)cccc3c2O1 (centres undefined) | inactive
CCCCCCCCCCCCCCCCCCOc1ccccc1CC(=O)NCC[N+]1(C)CCCCC1 | active
CCN(CC)CCN1C(=O)c2cccc3c(/C=C/CN4C(=O)c5cccc6cccc(c56)C4=O)ccc(c23)C1=O | inactive
C=C1C(=O)O[C@H]2[C@H]1CC/C(COC(=O)CSCSCC(=O)OC/C1=C/CC[C@@]3(C)O[C@H]3[C@H]3OC(=O)C(=C)[C@@H]3CC1)=C\CC[C@@]1(C)O[C@@H]21 | active
O=S(=O)(NCCNc1nccc(-c2c(-c3ccc(F)c(O)c3)nc3sccn23)n1)c1ccc(F)cc1 | inactive
O=C(Nc1ccccc1N1CCCC1=O)c1oc2ccc(F)cc2c1-c1cnn(-c2ccccc2)c1 | inactive
COC(=O)/C=C1/SC(=Nc2ccc([N+](=O)[O-])cc2)N(CCc2c[nH]c3ccc(O)cc23)C1=O | inactive
Cc1cccc2c1C[C@@]1(C2=O)C(c2ccc(C(C)(C)C)cc2)=NOS1=O (some centres undefined) | inactive
Oc1c(CN2CCCC2)cc(CSCc2ccccc2)c2cccnc12 | active
Fc1cccc(-c2ccc3c(c2)C2(CCNCC2)CN3)c1 | inactive
CCN(CC)c1ccc(CNc2cc(C)nc3ccccc23)cc1 | inactive
O=C(Cc1ccc(NC(=O)c2cccc(Cl)c2)cc1)NCc1ccccc1 | inactive
C[C@]1(O)CC(=O)[C@]2(O)C3=C(C=C[C@]2(O)C1)C(=O)c1c(O)cccc1C3=O | active
Cc1ccccc1Nc1cc(O)c2c(=O)cc(-c3ccccc3)oc2c1 | inactive
C=C1C(=O)O[C@H]2[C@H]1CC/C(COC(=O)c1cc3cc(Cl)ccc3[nH]1)=C\CC[C@@]1(C)O[C@@H]21 | active
Cc1ccc(/C=C/C(=O)c2ccc(-n3cc(CN4CCN(c5cc6c(cc5F)c(=O)c(C(=O)O)cn6C5CC5)CC4)nn3)cc2)cc1 | inactive
C=C(CNCCO)[C@@H]1CC[C@]2(CO)CC[C@]3(C)[C@H](CC[C@@H]4[C@@]5(C)CCC(N)C(C)(C)[C@@H]5CC[C@]43C)[C@@H]12 (some centres undefined) | active
COc1cc(-c2nc3cc(Cl)c(Cl)cc3[nH]2)ccc1OCC(=O)N=Nc1c(O)[nH]c2ccc(Cl)cc12 | active
Cn1cc(-c2csc(-c3cn(CCCN4CCOCC4)c4ccccc34)n2)c2cccnc21 | inactive
O=C1/C(=C/c2ccc(O)c(O)c2)COc2ccc(-c3ccccc3)cc21 | inactive
CCNC(=O)Oc1ccc(/C(=C(/C)Cc2ccc(OC)cc2)c2ccc(OCCN3CCCCC3)cc2)cc1 | inactive
O=S(=O)(Nc1cc(Sc2cccc3cccnc23)c(O)c2ccccc12)c1ccccc1 | active
